# Subject Of Test: furin, P09958
# Sequence (P09958 whole entry): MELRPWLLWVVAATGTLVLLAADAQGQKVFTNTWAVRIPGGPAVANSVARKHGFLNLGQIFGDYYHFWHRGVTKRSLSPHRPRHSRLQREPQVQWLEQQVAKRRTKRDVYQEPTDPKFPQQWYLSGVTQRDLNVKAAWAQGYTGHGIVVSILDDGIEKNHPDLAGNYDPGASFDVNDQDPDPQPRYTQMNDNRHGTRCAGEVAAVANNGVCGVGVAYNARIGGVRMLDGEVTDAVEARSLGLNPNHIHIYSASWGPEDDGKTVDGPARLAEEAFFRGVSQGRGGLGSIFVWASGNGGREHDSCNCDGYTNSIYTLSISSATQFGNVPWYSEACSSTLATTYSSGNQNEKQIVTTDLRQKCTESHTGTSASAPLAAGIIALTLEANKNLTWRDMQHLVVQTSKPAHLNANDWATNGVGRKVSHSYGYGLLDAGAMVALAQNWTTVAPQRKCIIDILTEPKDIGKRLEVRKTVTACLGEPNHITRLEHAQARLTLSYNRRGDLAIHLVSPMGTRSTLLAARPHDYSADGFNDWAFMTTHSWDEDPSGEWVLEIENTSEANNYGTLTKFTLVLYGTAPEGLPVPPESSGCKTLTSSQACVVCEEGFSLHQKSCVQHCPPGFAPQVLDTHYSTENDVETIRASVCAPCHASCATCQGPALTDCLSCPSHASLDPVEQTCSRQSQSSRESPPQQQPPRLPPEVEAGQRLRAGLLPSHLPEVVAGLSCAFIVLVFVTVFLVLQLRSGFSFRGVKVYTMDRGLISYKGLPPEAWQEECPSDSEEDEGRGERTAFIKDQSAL
# Procedure Details: furin cleavage Z-score vs untreated control; higher = more cleavage, active = 3.5 or more, inactive = 1 or less, 8 variable residues between constant flanks;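 note: purified furin at 1:10 enzyme:substrate in 50 mM HEPES pH 7.5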
# Condition Context: 15 min
Some of the results follow. The true hit rate is not given.
Observation Type: furin cleavage Z-score
Reply briefly: the number, and no unit.

These recorded examples may help you get a feel for the data.
Could you share which furin cleavage Z-score value was measured for CAILQASLLKAGNASASA [HC611] ? -0.703

Could you share which furin cleavage Z-score value was measured for CAEVRRVGRSAGNASASA [FS-766] ? 6.28

Could you share which furin cleavage Z-score value was measured for CASCGGVVLVAGNASASA [HC569] ? -0.138

Could you share which furin cleavage Z-score value was measured for CAVPGAVYTFAGNASASA [HC552] ? 0.509

Could you share which furin cleavage Z-score value was measured for CAYVTGMTTDAGNASASA [HC1211] ? -0.868

---
Could you share which furin cleavage Z-score value was measured for CASHSREGRSAGNASASA [FS-1281] ? 1.17

Could you share which furin cleavage Z-score value was measured for CAEHVVCCSMAGNASASA [HC2135] ? -0.688
